Target: hNLRP3 (Homo sapiens, UniProt Q96P20)
Construct: THP-1 cells were purchased from the American Type Culture Collection
Sequence (Q96P20 whole entry): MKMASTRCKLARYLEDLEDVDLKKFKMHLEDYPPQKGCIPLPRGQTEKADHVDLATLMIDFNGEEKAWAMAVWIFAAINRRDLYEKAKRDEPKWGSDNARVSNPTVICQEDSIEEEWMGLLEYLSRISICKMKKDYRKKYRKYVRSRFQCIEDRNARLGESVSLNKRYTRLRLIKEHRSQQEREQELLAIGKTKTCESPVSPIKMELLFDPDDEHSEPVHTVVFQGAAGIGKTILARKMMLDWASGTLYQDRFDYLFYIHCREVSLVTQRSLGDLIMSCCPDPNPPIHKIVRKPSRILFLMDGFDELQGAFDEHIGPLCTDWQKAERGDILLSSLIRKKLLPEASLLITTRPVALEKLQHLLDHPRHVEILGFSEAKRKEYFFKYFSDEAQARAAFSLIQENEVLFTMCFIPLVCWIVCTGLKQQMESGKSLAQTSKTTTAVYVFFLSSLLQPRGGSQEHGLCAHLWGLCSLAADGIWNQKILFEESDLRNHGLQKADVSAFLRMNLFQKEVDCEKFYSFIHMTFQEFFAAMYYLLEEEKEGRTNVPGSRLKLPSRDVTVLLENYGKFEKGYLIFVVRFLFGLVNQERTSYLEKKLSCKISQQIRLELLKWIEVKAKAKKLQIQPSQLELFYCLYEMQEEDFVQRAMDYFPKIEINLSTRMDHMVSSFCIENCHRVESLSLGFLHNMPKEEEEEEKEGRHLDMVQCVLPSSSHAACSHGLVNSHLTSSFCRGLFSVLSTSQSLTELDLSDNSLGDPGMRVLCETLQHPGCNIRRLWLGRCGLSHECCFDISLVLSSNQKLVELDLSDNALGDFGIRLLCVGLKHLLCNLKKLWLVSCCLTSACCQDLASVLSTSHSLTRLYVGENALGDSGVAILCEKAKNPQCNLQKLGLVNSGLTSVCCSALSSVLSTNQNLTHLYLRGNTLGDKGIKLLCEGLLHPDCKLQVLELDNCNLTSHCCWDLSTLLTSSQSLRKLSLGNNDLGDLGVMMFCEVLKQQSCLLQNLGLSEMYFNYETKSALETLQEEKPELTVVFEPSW
Assay: Measurement of IL-1β production in PMA-differentiated THP-1 cells (hNLRP3 agonist; ELISA, alternative and hTRF procedures)
pEC50: −log10 of the molar value.
Please note: Met applies when pEC50 is 5 or greater, and Not met applies otherwise.

CCN(Cc1nc2c(N)nc3cc(-c4cc[nH]n4)ccc3c2[nH]1)C(=O)C1CC1 [Compound 118] = Met
Nc1nc2cc(-c3cnccc3Cl)ccc2c2[nH]c(CN3CCCC3=O)nc12 [Compound 321] = Met
CCN(Cc1nc2c(N)nc3ccccc3c2n1CCCNC(=O)OC(C)(C)C)C(C)=O [Compound 191] = Not met
N#Cc1ccc(-c2ccc3c(c2)nc(N)c2nc(CN4CCCC4=O)[nH]c23)cc1 [Compound 434] = Not met

Exam item: decide whether the reported pEC50 for COc1ccc(Cn2c(CN3CCN(C)C3=O)nc3c(N)nc4cc(-c5cc[nH]n5)ccc4c32)cc1 [Compound 403] is at least 5.
Met

Exam item: decide whether the reported pEC50 for CCNCc1nc2c(N)nc3cc(-c4ncc[nH]4)ccc3c2[nH]1 [Compound 162] is at least 5.
Not met

Exam item: decide whether the reported pEC50 for CCCn1c(CN(CC)C(C)=O)nc2c(N)nc3cc(Br)ccc3c21 [Compound 435] is at least 5.
Not met

----------
Biological target: hNLRP3 (Homo sapiens)
Construct: THP-1 cells were purchased from the American Type Culture Collection
Test: Measurement of IL-1β production in PMA-differentiated THP-1 cells (hNLRP3 agonist; ELISA, alternative and hTRF procedures)
pEC50: −log10 of the molar value.
Please note: Criterion met applies when pEC50 is 5 or greater, and Criterion not met applies otherwise.

CCN(Cc1nc2c(N)nc3cc(-c4cc[nH]n4)ccc3c2[nH]1)CC(C)C [Compound 453] = Criterion met

Exam item: decide whether the reported pEC50 for Nc1nc2cc(-c3cc[nH]n3)ccc2c2[nH]c(CN3C(=O)OCC3c3ccccc3)nc12 (centres unmarked) [Compound 363] is at least 5.
Criterion met

Exam item: decide whether the reported pEC50 for Nc1nc2cc(-n3cccn3)ccc2c2[nH]c(CN3CC(c4ccccc4)CC3=O)nc12 (centres unmarked) [Compound 103] is at least 5.
Criterion met

Exam item: decide whether the reported pEC50 for CCN(Cc1nc2c(N)nc3ccc(-n4cccn4)cc3c2[nH]1)C(C)=O [Compound 207] is at least 5.
Criterion not met

Exam item: decide whether the reported pEC50 for CCN(Cc1nc2c(N)nc3cc(OC)ccc3c2[nH]1)C(C)=O [Compound 158] is at least 5.
Criterion not met

----------
Please go through the items and note down their EC50.
Target: hNLRP3 (Homo sapiens, UniProt Q96P20)
Construct: THP-1 cells were purchased from the American Type Culture Collection
Test: Measurement of IL-1β production in PMA-differentiated THP-1 cells (hNLRP3 agonist; ELISA, alternative and hTRF procedures)

Nc1nc2cc(-n3cccn3)ccc2c2[nH]c(CN3C[C@H](c4ccccc4)CC3=O)nc12 [Compound 358] = 0.63 µM
COC(=O)CCCn1c(CN2CCCC2=O)nc2c(N)nc3ccccc3c21 [Compound 335] = 6.5 µM
CCN(Cc1nc2c(N)nc3cc(-c4cc[nH]n4)ccc3c2[nH]1)C(=O)N1CCOCC1 [Compound 455] = 2 µM
COc1ccccc1-c1ccc2c(c1)nc(N)c1nc(CN3CCCC3=O)[nH]c12 [Compound 283] = 6.5 µM
CCNCc1nc2c(N)nc3cc(-n4cccn4)ccc3c2[nH]1 [Compound 398] = 1.22 µM

Quick request: EC50 for each listed item, please.
1. CCN(Cc1nc2c(N)nc3cc(-c4cc[nH]n4)ccc3c2[nH]1)S(=O)(=O)C(C)C [Compound 459]
2. CCOC(=O)c1cc2c(cc1Br)nc(N)c1nc(CN(CC)C(C)=O)[nH]c12 [Compound 198]
3. CCN(Cc1nc2c(N)nc3cc(-c4cc[nH]n4)ccc3c2[nH]1)S(C)(=O)=O [Compound 124]

["6.7 µM", "24.2 µM", "2.4 µM"]
